# Target or system: GLP-1R (Homo sapiens)
# Sequence (P43220 24-463): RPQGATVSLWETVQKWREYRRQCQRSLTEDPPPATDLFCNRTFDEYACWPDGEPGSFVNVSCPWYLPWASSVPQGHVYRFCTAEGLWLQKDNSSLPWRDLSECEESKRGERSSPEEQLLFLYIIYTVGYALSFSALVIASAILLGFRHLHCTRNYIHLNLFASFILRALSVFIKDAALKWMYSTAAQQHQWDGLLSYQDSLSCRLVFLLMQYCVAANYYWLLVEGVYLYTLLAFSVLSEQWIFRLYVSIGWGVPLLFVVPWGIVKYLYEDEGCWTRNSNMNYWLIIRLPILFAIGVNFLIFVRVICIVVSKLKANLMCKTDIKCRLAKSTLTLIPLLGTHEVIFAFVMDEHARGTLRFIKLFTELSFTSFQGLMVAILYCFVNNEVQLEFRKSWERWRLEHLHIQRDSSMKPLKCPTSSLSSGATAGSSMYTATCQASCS
# Protocol notes: GLP-1R Activation - cAMP Assay
# Type: cell-based
# Setup conditions: cAMP increase in CHO cells stably expressing GLP-1R; each compound run on one of the two cAMP assays (Assay 1 or Assay 2, not specified)
Measured endpoint: log10 of EC50 (log10 of the value in nM)
Answers are given as log10 of EC50 in nM.

### Prompt Could you share what log10 of EC50 was measured for COC[C@@]1(C)COCC1n1c(Cc2cc(F)c(-c3cccc(OCc4ccc(Cl)cc4F)n3)cc2F)nc2ccc(C(=O)O)cc21 (single isomer, unassigned) [Example 547] , tested on GLP-1R (Homo sapiens)?
### Response -1.62

### Prompt Could you share what log10 of EC50 was measured for CC1(C)COC[C@H]1n1c(Cc2cc(F)c(-c3cccc(OCc4ccc(C(F)(F)F)cc4F)n3)cc2F)nc2c(F)cc(C(=O)O)cc21 , tested on GLP-1R (Homo sapiens)?
### Response -0.77

### Prompt Could you share what log10 of EC50 was measured for Cn1cc(-c2cc(F)c(COc3cccc(-c4cc(F)c(Cc5nc6ccc(C(=O)O)cc6n5[C@H]5COCC5(C)C)cc4F)n3)cn2)cn1 , tested on GLP-1R (Homo sapiens)?
### Response 0.31

### Prompt Could you share what log10 of EC50 was measured for O=C(O)c1cc(F)c2nc(Cc3cc(F)c(-c4nccc(OCc5ccc(C(F)(F)F)cc5F)n4)cc3F)n(C[C@@H]3CCO3)c2c1 , tested on GLP-1R (Homo sapiens)?
### Response -1.09

### Prompt Could you share what log10 of EC50 was measured for CC1(C)COC[C@H]1n1c(Cc2cc(F)c(-c3cccc(OCc4ccc(Cl)cc4C#N)n3)cc2F)nc2ccc(C(=O)O)cc21 , tested on GLP-1R (Homo sapiens)?
### Response -1.68

### Prompt Could you share what log10 of EC50 was measured for CC1(C)COC[C@H]1n1c(Cn2cc(Cl)c(-c3cccc(OCc4ccc(Cl)cc4F)n3)cc2=O)nc2c(F)cc(C(=O)O)cc21 , tested on GLP-1R (Homo sapiens)?
### Response -0.58

### Prompt Could you share what log10 of EC50 was measured for Cc1cc(Cc2nc3ccc(C(=O)O)cc3n2[C@@H]2COCC2(C)C)c(F)cc1-c1cccc(OCc2ccc(C#N)cc2)n1 , tested on GLP-1R (Homo sapiens)?
### Response -1.19

### Prompt Could you share what log10 of EC50 was measured for O=C(O)c1ccc2nc(Cc3cc(F)c(-c4cccc(OCc5cnc(-n6ccnn6)cc5Cl)n4)cc3F)n(CCOC(F)F)c2c1 , tested on GLP-1R (Homo sapiens)?
### Response -0.72

### Prompt Could you share what log10 of EC50 was measured for CC1(C)COC[C@H]1n1c(Cc2cc(F)c(-c3ccc(F)c(OCc4ccc(Cl)cc4)n3)cc2F)nc2ccc(C(=O)O)cc21 , tested on GLP-1R (Homo sapiens)?
### Response -0.47

### Prompt Could you share what log10 of EC50 was measured for COCCn1c(Cc2c(F)cc(-c3cccc(OCc4ccc(-n5ccnn5)nc4)n3)c(F)c2F)nc2c(F)cc(C(=O)O)cc21 , tested on GLP-1R (Homo sapiens)?
### Response -1.15

### Prompt Could you share what log10 of EC50 was measured for Cn1ccc(COc2cccc(-c3cc(F)c(Cc4nc5ccc(C(=O)O)cc5n4[C@@H]4COCC4(C)C)cc3F)n2)cc1=O , tested on GLP-1R (Homo sapiens)?
### Response -0.30

### Prompt Could you share what log10 of EC50 was measured for CC1(C)COC[C@@H]1n1c(Cc2cc(F)c(-c3cccc(OCc4ccc(C#N)cc4F)n3)cc2F)nc2c(F)cc(C(=O)O)cc21 , tested on GLP-1R (Homo sapiens)?
### Response -0.59

### Prompt Could you share what log10 of EC50 was measured for COCCn1c(Cc2cc(F)c(-c3cccc(OCc4ccc(OC(F)(F)F)cc4)n3)cc2F)nc2ccc(C(=O)O)cc21 , tested on GLP-1R (Homo sapiens)?
### Response 0.54

These measurements were taken from patent US12570642B2.
